Hey, just so you know, these numbers are from ChEMBL document CHEMBL1132270.

# Measurement target: 5-hydroxytryptamine receptor 1A (Rattus norvegicus)
# Sequence (P19327 whole entry): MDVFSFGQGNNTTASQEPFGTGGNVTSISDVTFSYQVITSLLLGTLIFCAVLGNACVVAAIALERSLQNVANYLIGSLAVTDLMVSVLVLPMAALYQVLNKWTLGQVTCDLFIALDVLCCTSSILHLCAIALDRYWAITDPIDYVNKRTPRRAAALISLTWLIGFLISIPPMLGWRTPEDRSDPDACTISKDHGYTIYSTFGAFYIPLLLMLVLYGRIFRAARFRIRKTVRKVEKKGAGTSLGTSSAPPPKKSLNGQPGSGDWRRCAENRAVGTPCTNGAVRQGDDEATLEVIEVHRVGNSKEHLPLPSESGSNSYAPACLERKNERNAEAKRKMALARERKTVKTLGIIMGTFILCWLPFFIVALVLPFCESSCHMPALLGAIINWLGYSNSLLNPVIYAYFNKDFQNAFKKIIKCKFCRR
Entries and their measured Ki follow.

- Chemical structure: "COc1ccccc1N1CCN(CCCN2C(=O)CC(=C3c4ccccc4-c4ccccc43)C2=O)CC1"
  Limit qualifier: "="
  Ki / nM: 37
- Chemical structure: "O=C1CC(=C2c3ccccc3-c3ccccc32)C(=O)N1CCCN1CCN(c2ccccc2)CC1"
  Limit qualifier: ">"
  Ki / nM: 1000
- Chemical structure: "O=C1CC(=C2c3ccccc3-c3ccccc32)C(=O)N1CN1CCN(c2cccc(C(F)(F)F)c2)CC1"
  Limit qualifier: "="
  Ki / nM: 114
- Chemical structure: "O=C1CC(=C2c3ccccc3-c3ccccc32)C(=O)N1CCCN1CCN(c2ccc(F)cc2)CC1"
  Limit qualifier: ">"
  Ki / nM: 10000
- Chemical structure: "COc1ccccc1N1CCN(CC#CCN2C(=O)CC(=C(c3ccccc3)c3ccccc3)C2=O)CC1"
  Limit qualifier: "="
  Ki / nM: 6.6
- Chemical structure: "O=C1CC(=C2c3ccccc3-c3ccccc32)C(=O)N1CCCCN1CCN(c2ccccc2)CC1"
  Limit qualifier: "="
  Ki / nM: 14
- Chemical structure: "O=C1CC(=C2c3ccccc3-c3ccccc32)C(=O)N1CN1CCN(c2ccccc2)CC1"
  Limit qualifier: "="
  Ki / nM: 201
- Chemical structure: "O=C1CC(=C2c3ccccc3-c3ccccc32)C(=O)N1CCCN1CCN(c2cccc(C(F)(F)F)c2)CC1"
  Limit qualifier: ">"
  Ki / nM: 1000
- Chemical structure: "O=C1CC(=C2c3ccccc3-c3ccccc32)C(=O)N1CCN1CCN(c2ccc(F)cc2)CC1"
  Limit qualifier: ">"
  Ki / nM: 10000
- Chemical structure: "O=C1CC(=C2c3ccccc3-c3ccccc32)C(=O)N1CCN1CCN(c2cccc(C(F)(F)F)c2)CC1"
  Limit qualifier: ">"
  Ki / nM: 10000
